system_tested: DNA-PK (Homo sapiens (Human), UniProt P78527)
protocol_text: DNA-PK biochemical assay (FlashPlate kinase assay, Example 4)
run_parameters: 5 μM ATP; read-out: Bonding DNA-PK IC50
Description: The kinase assay was carried out in streptavidin-coated […] microtitre FlashPlates®. […] A non-specific reaction (blank value) was determined using 10 μM of a proprietary kinase inhibitor. The radioactivity measurement was carried out by means of a TopCount. IC50 values were calculated in RS1 (Kashishian et al. (2003) Molecular Cancer Therapeutics 1257) and are compiled in Table 1.
pIC50: −log10 of the molar value.
Here, each record is paired with measured pIC50 data.

[ask] Fill in the blank: the reported pIC50 of COc1ccc([C@H](O)[C@H]2CCCN(c3nnnc4cc(N5CCOCC5)ccc34)C2)cn1 is ____.
[reply] > 7.00
